These entries and their values trace back to PubChem BioAssay (NCI).

# growth listing for each entry below
Tested on: SK-MEL-5 melanoma
Experiment: NCI-60 one-dose screen, 48 h (100 = growth as untreated, 0 = no growth, -100 = all killed)
Conditions: 10 µM unless noted
Experimental: Growth inhibition of the SK-MEL-5 human tumor cell line is measured as a screen for anti-cancer activity. Cells are grown in 96 well plates and exposed to the test compound for 48 hours. Compounds are tested at a single concentration, which is 10^-5 M for most compounds. The reported endpoint is percent growth (GI% or GIPRCNT), where numbers from 0 - 100% represent growth inhibition, and numbers from -100% - 0 represent cell death. For example, a value of 40 represents 60% growth inhibition. […]
This is part of a sample that, as a whole, favours compounds with a hit. Of some 83,000 tested, about 20% had one in any assay.

# compound, measure.unit, growth
measured = [
    ("COc1cc(NC(C)CCCN2C(=O)c3ccccc3C2=O)c2nc(C)ccc2c1OC (stereo not given)", "%", 88.5),
    ("O=C(Nc1ccc(-n2ccc3c(NC(=O)c4ccccc4)ncnc32)cc1)Nc1ccc(Cl)c(Cl)c1", "%", 13.7),
    ("CC(=O)N1N=C2N(Cc3ccccc3)C(=O)c3c(sc4c3CCCC4)N2C1c1cn(-c2ccccc2)nc1-c1ccc(Cl)cc1 (stereo not given)", "%", 102),
    ("CCCOC(=O)c1ccc([N+](=O)[O-])o1", "%", 116),
    ("COc1cc(/C=C\\c2cc(/C=C\\c3ccc(O)c(OC)c3)n(C(=O)CNc3ccccc3OC)n2)ccc1O", "%", 44.8),
    ("COc1ccc(OC)c(NCC(=O)n2nc(/C=C\\c3ccc(O)c(OC)c3)cc2/C=C\\c2ccc(O)c(OC)c2)c1", "%", 9.05),
    ("COc1cc2ncnc(Oc3ccc(NC(=O)Nc4ccc(C5(C#N)CCCC5)cc4)c4ccccc34)c2cc1OC", "%", 50.2),
    ("COc1ccc2c(c1)OC(N(C(C)=O)C(C)=O)=C(C#N)C2c1ccc(F)cc1 (stereo not given)", "%", 18.9),
    ("O=[N+]([O-])c1ccccc1NC1c2ccccc2Oc2ccccc21", "%", 46),
    ("Cl[C@@H]1CCO[C@H](c2cc3ccccc3c3ccccc23)C1", "%", 93),
    ("O=C1c2ccccc2OC=C(c2ccccc2)N1CCCCNc1ccc(F)cc1", "%", 94.3),
    ("CCOC(=O)c1cnc2c(OC)ccc(OC)c2c1Cl", "%", 107),
    ("CCC1S/C(=N\\N=C(/C)c2cc3ccccc3o2)N(c2ccccc2)C1=O (stereo not given)", "%", 83.9),
    ("O=C1c2ccccc2C(=O)c2c(NCCN=Cc3c(O)ccc4ccccc34)cccc21", "%", 86.7),
    ("O=C(Nc1ccc(-n2ccc3c(NC(=O)c4ccccc4)nccc32)cc1)Nc1cccc(C(F)(F)F)c1", "%", 53.6),
    ("Oc1ccc(Cl)cc1Sc1cc(Cl)ccc1O", "%", -14.2),
    ("CCc1c(C)c2cc(-n3c(-c4ccc(OC)cc4)csc3=N)c(O)c(C)c2oc1=O", "%", 4.4),
    ("COc1cc(NC(=O)C#Cc2ccccc2)c(OC)cc1Cl", "%", 30.1),
    ("CC(=O)Cc1cccnc1", "%", 101),
    ("CC[C@@]1(O)C(=O)OCc2c1cc1n(c2=O)Cc2c-1nc1ccccc1c2/C=N/OC(C)(C)C", "%", -66.3),
    ("C=C1C(=O)O[C@H]2[C@H]1CC/C(C(=O)NCCOCCOCC(=O)Nc1ccc(OC)c(C(N)=O)c1O)=C\\CC[C@@]1(C)O[C@@H]21", "%", 102),
    ("C=C1C(=O)O[C@H]2[C@H]1CC/C(COC(=O)CCCC(=O)OC/C1=C/CC[C@@]3(C)O[C@H]3[C@H]3OC(=O)C(=C)[C@@H]3CC1)=C\\CC[C@@]1(C)O[C@@H]21", "%", 33.4),
    ("OCc1cn(-c2ccc(Cl)cc2)nc1-c1ccc(O)cc1", "%", 95.4),
    ("COc1ccc(C2=NN(C(=O)COc3ccc(Cl)cc3)C(O)(c3cc(F)c(Cl)cc3Cl)C2)cc1 (stereo not given)", "%", 114),
    ("COc1ccc(-c2c(NC(=O)Nc3ccc(Cl)c(C(F)(F)F)c3)cnn2-c2ccc(S(N)(=O)=O)cc2)cc1", "%", 27),
    ("COc1ccc(Cl)cc1NC(=O)c1cc2c(n1C)-c1nc(NC(=O)C(C)(C)C)sc1CC2", "%", 79.7),
    ("NC(CCCC(N)C(=O)c1ccccc1)C(=O)O (stereo not given)", "%", 107),
    ("Clc1ccc(OCc2nc(-c3ccccc3)n[nH]2)c(Cl)c1", "%", 100),
    ("COc1ccc(CCNC=O)cc1OC", "%", 95.5),
    ("O=C(CSc1nnc(-c2ccc(Cl)cc2)o1)Nc1ccc(C(=O)/C=C/c2ccccc2)cc1", "%", 98),
    ("CN(C)C(=O)Nc1nc2cc(Cl)c(Cl)cc2[nH]1", "%", 19),
    ("CN(C)c1ccc2cc(-c3nc4ccccc4s3)c(N)nc2c1", "%", 58.7),
    ("NS(=O)(=O)c1ccc(Nc2nc(O)c(/C=C3\\C=Nc4ccccc43)s2)cc1", "%", 101),
    ("O=S(=O)(Nc1cccc2cc(OS(=O)(=O)c3ccccc3)ccc12)c1ccccc1", "%", 53.4),
    ("COc1ccc(-c2nn(-c3ccc(NC(=O)c4cc(C(F)(F)F)cc(C(F)(F)F)c4)cc3)cc2-c2ccncc2)cc1Cl", "%", 69.1),
    ("CC1CCc2cc(F)cc3c(=O)c(C(=O)O)cn1c23 (stereo not given)", "%", 102),
    ("Cc1cc(Nc2ccc(Cl)c(Cl)c2)nc(N)n1", "%", 83.9),
    ("Nc1ccc(S(=O)(=O)Nc2ccnn2-c2ccccc2)cc1", "%", 105),
    ("Nc1nc(-c2cc3c(cc2Cl)NC(=O)/C3=C/c2ccc(Cl)cc2)cs1", "%", 6.5),
    ("C=CC(=O)NC(=O)Nc1ccccc1Cl", "%", 96.6),
]
